Each recorded value in this set is attributed to patent US20250235543A1.

test.target: CDK4 (Homo sapiens, UniProt P11802)
Construct: endogenous in cells; host or cells: Calu-1
Sequence (P11802 2-303 limits assumed): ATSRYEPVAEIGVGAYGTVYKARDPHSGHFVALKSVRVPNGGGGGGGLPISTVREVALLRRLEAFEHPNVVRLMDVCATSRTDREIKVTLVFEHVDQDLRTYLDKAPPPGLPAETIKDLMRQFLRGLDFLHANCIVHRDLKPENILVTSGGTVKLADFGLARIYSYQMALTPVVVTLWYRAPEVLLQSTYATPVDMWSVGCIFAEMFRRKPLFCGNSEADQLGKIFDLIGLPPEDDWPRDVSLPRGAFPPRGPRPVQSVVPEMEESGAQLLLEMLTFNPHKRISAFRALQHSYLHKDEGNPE
Sequence (P24385 whole entry partner): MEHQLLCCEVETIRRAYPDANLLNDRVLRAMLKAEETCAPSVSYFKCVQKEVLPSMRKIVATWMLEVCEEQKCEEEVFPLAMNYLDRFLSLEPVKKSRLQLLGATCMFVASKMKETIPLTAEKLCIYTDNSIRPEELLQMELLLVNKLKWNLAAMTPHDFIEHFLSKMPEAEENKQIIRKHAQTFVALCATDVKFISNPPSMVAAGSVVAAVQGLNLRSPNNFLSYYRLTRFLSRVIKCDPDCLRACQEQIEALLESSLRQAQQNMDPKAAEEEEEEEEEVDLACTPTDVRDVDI
Sequence (Q16531 2-1140 limits assumed, further chain): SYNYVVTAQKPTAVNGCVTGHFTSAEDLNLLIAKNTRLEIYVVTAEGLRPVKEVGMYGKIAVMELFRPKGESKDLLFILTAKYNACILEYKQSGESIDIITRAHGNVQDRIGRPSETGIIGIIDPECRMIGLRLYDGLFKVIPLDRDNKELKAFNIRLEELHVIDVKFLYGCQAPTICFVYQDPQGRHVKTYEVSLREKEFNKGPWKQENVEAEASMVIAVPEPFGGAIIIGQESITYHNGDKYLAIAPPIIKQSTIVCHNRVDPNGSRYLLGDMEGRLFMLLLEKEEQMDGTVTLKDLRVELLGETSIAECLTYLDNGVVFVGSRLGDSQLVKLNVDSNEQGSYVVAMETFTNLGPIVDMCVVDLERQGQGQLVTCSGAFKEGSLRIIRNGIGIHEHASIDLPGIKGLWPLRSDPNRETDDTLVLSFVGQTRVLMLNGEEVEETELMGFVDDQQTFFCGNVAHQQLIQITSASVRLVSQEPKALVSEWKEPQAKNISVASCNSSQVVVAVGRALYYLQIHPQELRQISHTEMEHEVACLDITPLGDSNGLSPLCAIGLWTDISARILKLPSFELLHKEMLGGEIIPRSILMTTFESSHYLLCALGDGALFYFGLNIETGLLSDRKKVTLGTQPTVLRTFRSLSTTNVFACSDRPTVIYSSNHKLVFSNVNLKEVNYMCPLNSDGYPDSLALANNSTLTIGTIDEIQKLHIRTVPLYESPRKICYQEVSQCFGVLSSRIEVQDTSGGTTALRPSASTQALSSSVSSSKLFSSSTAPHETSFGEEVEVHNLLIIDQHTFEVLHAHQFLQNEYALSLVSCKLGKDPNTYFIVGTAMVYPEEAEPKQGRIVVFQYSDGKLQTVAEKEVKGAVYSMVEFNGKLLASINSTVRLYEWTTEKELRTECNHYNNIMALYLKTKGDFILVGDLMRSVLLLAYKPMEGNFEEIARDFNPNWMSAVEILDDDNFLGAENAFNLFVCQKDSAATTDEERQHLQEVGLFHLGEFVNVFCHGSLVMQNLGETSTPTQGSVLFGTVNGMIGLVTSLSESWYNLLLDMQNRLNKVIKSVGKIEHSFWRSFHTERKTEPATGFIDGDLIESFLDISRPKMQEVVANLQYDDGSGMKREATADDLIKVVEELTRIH
assay.info: CDK4 percentage degradation in Calu-1 cells (immunoblotting)
Assay type: cell-based
condition.parameters: Calu-1 cells, 200 nM, 16 hours; read-out: CDK4 Degradation (200 nM)
readout.name: inhibition at 0.2 µM

Value of inhibition at 0.2 µM reported for the compound `COc1ccc(NC(=O)c2ccccc2NC(=O)CCN2CCN(CCNC(=O)CN3CCN(c4ccc(Nc5ncc6c(C)c(C(C)=O)c(=O)n(C7CCCC7)c6n5)nc4)CC3)CC2)nn1` is 50 to 80%

Documented inhibition at 0.2 µM of `CC(=O)c1c(C)c2cnc(Nc3ccc(N4CCN(CC(=O)NCCCCCNc5cc(Cl)ccc5C(=O)Nc5ccc(C)c(C6CC6)n5)CC4)cn3)nc2n(C2CCCC2)c1=O` : < 30%

The compound listed as `CC(=O)c1c(C)c2cnc(Nc3ccc(N4CCN(CC(=O)NCCOCCOCCC(=O)Nc5ccccc5C(=O)Nc5nc(C6CCNCC6)c(C)s5)CC4)cn3)nc2n(C2CCCC2)c1=O` has a reported inhibition at 0.2 µM of 50 to 80%
